These measurements were taken from paper PMC11049645.

Molecular target: DPP-IV activity of Caco-2 cells (Homo sapiens, UniProt P27487)
Construct: endogenous in cells
Sequence (P27487 whole entry): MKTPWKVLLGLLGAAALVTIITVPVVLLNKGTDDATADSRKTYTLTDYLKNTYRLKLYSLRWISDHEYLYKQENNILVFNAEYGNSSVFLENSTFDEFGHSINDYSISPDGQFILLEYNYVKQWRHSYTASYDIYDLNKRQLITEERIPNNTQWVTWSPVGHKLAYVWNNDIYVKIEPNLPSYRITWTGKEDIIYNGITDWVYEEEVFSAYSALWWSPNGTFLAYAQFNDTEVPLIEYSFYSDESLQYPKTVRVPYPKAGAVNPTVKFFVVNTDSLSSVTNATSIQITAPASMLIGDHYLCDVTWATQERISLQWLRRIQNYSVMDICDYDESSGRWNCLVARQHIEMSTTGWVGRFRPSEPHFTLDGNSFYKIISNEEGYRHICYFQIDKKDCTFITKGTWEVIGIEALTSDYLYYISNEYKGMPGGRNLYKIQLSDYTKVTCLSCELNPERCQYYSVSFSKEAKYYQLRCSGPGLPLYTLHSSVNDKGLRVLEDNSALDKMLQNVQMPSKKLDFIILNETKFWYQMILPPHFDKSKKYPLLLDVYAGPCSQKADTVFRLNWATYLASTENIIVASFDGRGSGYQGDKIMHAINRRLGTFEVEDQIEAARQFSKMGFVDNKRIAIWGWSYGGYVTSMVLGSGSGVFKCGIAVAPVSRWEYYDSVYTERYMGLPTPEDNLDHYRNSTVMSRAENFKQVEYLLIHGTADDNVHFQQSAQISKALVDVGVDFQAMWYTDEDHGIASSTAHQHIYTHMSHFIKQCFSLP
Assay: In situ cell-based DPP-IV inhibition (Gly-Pro-AMC)
Conditions: 1 h at 37 °C, Gly-Pro-AMC 50 µM, mean ± SD (n = 3), read-out: In situ DPP-IV inhibitory activity IC50
Peptide text beside a SMILES is read from it.
Quantity Measured: pIC50
Remember the convention: pIC50 equals -log10 of concentration in molar.

INPUT: Looking for the measured pIC50 of CC(C)C[C@H](NC(=O)[C@@H](N)CC(C)C)C(=O)N[C@@H](CC(C)C)C(=O)N1CCC[C@H]1C(=O)O [Peptide P9, LLLP] (H-LLLP-OH; N-terminus and C-terminus assumed) , can you help?
OUTPUT: 3.81

* * *

Peptide text beside a SMILES is read from it.
Quantity Measured: pIC50
Remember the convention: pIC50 equals -log10 of concentration in molar.

INPUT: What reported pIC50 corresponds to CC(C)C[C@H](NC(=O)[C@H](C)NC(=O)[C@@H]1CCCN1)C(=O)N[C@@H](Cc1ccccc1)C(=O)O [Peptide P5, PALF] (H-PALF-OH; N-terminus and C-terminus assumed) on DPP-IV (Homo sapiens, UniProt P27487)?
OUTPUT: 2.76

INPUT: What reported pIC50 corresponds to CC(C)C[C@H](NC(=O)[C@@H]1CCCN1C(=O)[C@@H]1CCCN1C(=O)[C@@H](N)CC(C)C)C(=O)O [Peptide P3, LPPL] (H-LPPL-OH; N-terminus and C-terminus assumed) on DPP-IV (Homo sapiens, UniProt P27487)?
OUTPUT: 2.59

INPUT: What reported pIC50 corresponds to CC(C)C[C@H](NC(=O)[C@@H](N)CC(C)C)C(=O)N[C@@H](CC(C)C)C(=O)N1CCC[C@H]1C(=O)O [Peptide P9, LLLP] (H-LLLP-OH; N-terminus and C-terminus assumed) on DPP-IV (Homo sapiens, UniProt P27487)?
OUTPUT: 3.67

INPUT: What reported pIC50 corresponds to CC(C)[C@H](N)C(=O)N1CCC[C@H]1C(=O)N1CCC[C@H]1C(=O)N[C@@H](Cc1ccccc1)C(=O)O [Peptide P2, VPPF] (H-VPPF-OH) on DPP-IV (Homo sapiens, UniProt P27487)?
OUTPUT: 2.80
